- Assay method text: folding enthalpy; higher = less favourable; fluorescence melt of hairpins on a sequencing array, two-state fit
- Assay setup: sodium 0.088 M
Quantity name: folding enthalpy
Please append the unit to your numeric answer.

Reported folding enthalpy ( GCTAAAGAAATTTAGC ((((((....)))))) ) = -28.8 kcal/mol

Reported folding enthalpy ( GGTGACGAAAGTCTGACC ((((((....)))..))) ) = -15.6 kcal/mol

Reported folding enthalpy ( GTAGCGGGAAACCGCCAC ((.((((....)))).)) ) = -11.7 kcal/mol

Reported folding enthalpy ( GGGCTGGGAAACCGGCCC ((((.((....)).)))) ) = -29.2 kcal/mol

Reported folding enthalpy ( GCTTGTCGAAAGACCAGC (((.(((....))).))) ) = -26.7 kcal/mol

Reported folding enthalpy ( GGCAGAGGAAACTTTGCC ((((.((....)).)))) ) = -35.5 kcal/mol

Reported folding enthalpy ( GATCTTAAGCAAGATC ((((((....)))))) ) = -31.3 kcal/mol

Reported folding enthalpy ( GTCAGTGAAAACTGAC ((((((....)))))) ) = -35.6 kcal/mol

Okay, here is my list. What is folding enthalpy for each of these?
1. GAGTCCGGAAACGAACTC ((((.((....)).))))
2. GACGACGAAAGTCAGGTC ((((((....)))..)))
3. GTTCCCGAAAGGGGGAAC ((((((....)))..)))
4. GAGCACGAAAGTGTCTC ((((((....))).)))
5. GGTCAATCGAAAGATACC (((..(((....))))))
6. GGTCCCTCGAAAGAGACC (((..(((....))))))

1. -34.6 kcal/mol
2. -19.9 kcal/mol
3. -19.3 kcal/mol
4. -23.3 kcal/mol
5. -13.3 kcal/mol
6. -17.1 kcal/mol

---

- Assay method text: folding enthalpy; higher = less favourable; fluorescence melt of hairpins on a sequencing array, two-state fit
- Assay setup: sodium 0.088 M
Provide the recorded folding enthalpy for the entries that follow.

Examples with their reported folding enthalpy follow.
Reported folding enthalpy ( GCGTAGTTACGC ((((....)))) ) = -22.4 kcal/mol

Reported folding enthalpy ( GATCGCTCTTGCGATC ((((((....)))))) ) = -38.9 kcal/mol

Reported folding enthalpy ( GATCAGAGTACTGATC ((((((....)))))) ) = -37.4 kcal/mol

Okay, here is my list. What is folding enthalpy for each of these?
1. GCTGGGCGAAAGCTGAGC (((..((....))..)))
2. GTCTGCGAAAGCAAGGAC ((((((....)))..)))
3. GGATACGAAAGTATGTCC ((((((....)))..)))
4. GGGTACGAAAGTAGGCCC ((((((....)))..)))
5. GACCTACGAAAGTATGTC (((.(((....))).)))
6. CGAAGCGGAAACGCATCG (((.(((....))).)))

-21 kcal/mol
-17.5 kcal/mol
-12.5 kcal/mol
-20.1 kcal/mol
-33.4 kcal/mol
-27.5 kcal/mol

Okay, here is my list. What is folding enthalpy for each of these?
1. GCATTGGGAAACCAATGC (((((((....)))))))
2. GATCCGCTTCGGATC ((((((...))))))

["-44.9 kcal/mol", "-39 kcal/mol"]

Reported folding enthalpy ( GATCGATTCCTCGATC ((((((....)))))) ) = -41.2 kcal/mol
